- tgt: Paired box protein Pax-8 (Homo sapiens, UniProt Q06710)
- Sequence (Q06710 whole entry): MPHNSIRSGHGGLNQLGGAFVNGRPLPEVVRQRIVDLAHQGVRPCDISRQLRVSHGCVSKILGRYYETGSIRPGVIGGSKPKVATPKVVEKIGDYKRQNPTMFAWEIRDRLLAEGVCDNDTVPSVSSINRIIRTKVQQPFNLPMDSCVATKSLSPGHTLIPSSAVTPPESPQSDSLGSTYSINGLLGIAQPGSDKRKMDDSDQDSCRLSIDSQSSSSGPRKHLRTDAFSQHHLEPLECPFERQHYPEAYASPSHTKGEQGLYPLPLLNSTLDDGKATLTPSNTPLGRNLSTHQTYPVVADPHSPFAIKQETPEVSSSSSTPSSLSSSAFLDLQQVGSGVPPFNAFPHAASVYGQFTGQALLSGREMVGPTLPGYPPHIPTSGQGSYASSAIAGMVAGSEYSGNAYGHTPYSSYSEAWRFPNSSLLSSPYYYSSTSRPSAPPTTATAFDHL
- assay explanation: PAX8 transcriptional activity inhibition in RMG-I – RMG-I cells, luciferase, cherry-pick, dose response (AID 687027);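 also: luciferase reporter driven by Pax8 target thyroperoxidase promoter measured by SteadyGlo luminescence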
- Type: functional, cell-based
Activity calls are given as the source filed them. No rule for the calls is given here.
observation type: AC50

Return the recorded AC50 value; entry: CC[C@H](C)[C@@H]1NC(=O)CNC(=O)c2csc(n2)[C@H](C(C)(C)O)OC(=O)C(C)(C)[C@H](CCCC(C)(Cl)Cl)OC(=O)c2csc1n2 [LYNGBYABELLIN A]
< 0.26 µM (active)

Tell me its AC50 given CCCn1c(C)cc(C(=O)CN2C(=O)c3ccccc3S2(=O)=O)c1C as the entry.
3.55 µM (active)

Please supply the value of reported AC50 for the item C[C@@H]1CN([C@H](C)CO)S(=O)(=O)c2ccc(C#Cc3ccc(F)cc3)cc2O[C@H]1CN(C)C(=O)NC1CCCCC1
9.47 µM (active)

* * *

The source made the active and inactive calls.
Field: AC50. Provide a value for each of the compounds that follow.

Would you please give the reported AC50 of OC[C@@H](O)[C@@H](O)[C@@H](O)[C@@H](O)c1nc2cc(Cl)ccc2[nH]1 with Cytochrome P450 1A2 (Homo sapiens)?
6.31 µM (inconclusive)

Provide the reported AC50 (system: Cytochrome P450 1A2 (Homo sapiens)) for COC(=O)[C@@]1(Cc2ccc(F)cc2)[C@H]2c3cc(C(=O)N4CCCC4)n(CCO)c3C[C@H]2CN1C(=O)c1ccccc1
Sequence (P05177 whole entry): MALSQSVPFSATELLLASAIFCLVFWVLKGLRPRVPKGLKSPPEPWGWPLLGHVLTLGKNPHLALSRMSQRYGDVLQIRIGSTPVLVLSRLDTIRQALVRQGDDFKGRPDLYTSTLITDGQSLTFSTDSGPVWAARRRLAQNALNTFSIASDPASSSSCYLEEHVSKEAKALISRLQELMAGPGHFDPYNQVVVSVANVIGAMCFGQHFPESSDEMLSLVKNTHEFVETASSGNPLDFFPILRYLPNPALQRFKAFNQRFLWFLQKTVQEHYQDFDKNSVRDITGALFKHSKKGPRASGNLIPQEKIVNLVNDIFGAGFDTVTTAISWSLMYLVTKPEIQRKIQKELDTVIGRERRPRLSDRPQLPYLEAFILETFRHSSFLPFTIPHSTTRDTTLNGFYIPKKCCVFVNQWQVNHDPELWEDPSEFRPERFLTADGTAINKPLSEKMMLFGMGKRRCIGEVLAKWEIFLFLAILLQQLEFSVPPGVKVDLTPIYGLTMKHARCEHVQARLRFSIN
25.1 µM (inconclusive)

State measured AC50 of the compound CCc1ccccc1NC(=O)c1nnn(CC(=O)Nc2cccc(C)c2C)c1N with Cytochrome P450 1A2 (Homo sapiens).
12.6 µM (inconclusive)

Give AC50; test system Cytochrome P450 1A2 (Homo sapiens); compound Cc1ccc(OC(=O)N2CCOCC2)cc1
17.8 µM (inconclusive)

Write down measured AC50 (Cytochrome P450 1A2 (Homo sapiens)) for this compound. O=C(O)c1ccccc1C(=O)Nc1nccs1
15.8 µM (inconclusive)

Under Cytochrome P450 1A2 (Homo sapiens): report AC50 of COc1ccc(-c2cc(CCCC(=O)NCCc3ccc(OC)cc3OC)no2)cc1 .
0.562 µM (active)

Enter recorded AC50 with Cytochrome P450 1A2 (Homo sapiens) for CCn1ncc(C(=O)Nc2cc(C)on2)c1C here.
15.8 µM (inconclusive)

For Cytochrome P450 1A2 (Homo sapiens), give the measured AC50 of the entry O=C(c1cccc(F)c1)N1CCC2(CCCN(c3ccccc3)C2)CC1
15.8 µM (inconclusive)

Give the observed AC50 of Cc1ccc(Cn2cccc(NC(=O)NC3CCCCC3)c2=O)cc1 for Cytochrome P450 1A2 (Homo sapiens).
15.8 µM (inconclusive)

GET AC50 where system = Cytochrome P450 1A2 (Homo sapiens) and item = Cn1cc(-c2nc3cnc(Oc4ccccc4)nc3n(Cc3cccs3)c2=O)c2ccccc21
3.16 µM (inconclusive)

GET AC50 | system: Cytochrome P450 1A2 (Homo sapiens) | item: CC(=O)CSc1nnc(Cc2ccc([N+](=O)[O-])cc2)o1;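 also: PubChem cytochrome P450 panel assay, CYP1A2 panel member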
15.8 µM (inconclusive)
